Target or system 5-HT7b receptor (Homo sapiens): recorded pKi listed per item.
// pKi is dimensionless: -log10 of concentration (M)

Known pKi results, listed for orientation:
CC1NC(NS(=O)(=O)c2cccc3ccccc23)=Nc2cccc(F)c21 (centres unmarked) | 4.45
CC1OC(NS(=O)(=O)c2cccc3ccccc23)=Nc2ccccc21 (centres unmarked) | 4.25
CC1NC(NS(=O)(=O)c2cccc3ccccc23)=Nc2c(Cl)cccc21 (centres unmarked) | 4.43
CC1NC(NS(=O)(=O)c2cccc3ccccc23)=Nc2cccc(Cl)c21 (centres unmarked) | 4.71

Input: Suppose we examine the compound CC1c2ccccc2N=C(NS(=O)(=O)c2cccc3ccccc23)N1C (centres unmarked) ; what pKi value has been reported?
Output: 4.45

* * *

Each entry below carries its reported melting point.

Known melting point results, listed for orientation:
O=S(=O)(NC1=Nc2cccc(Cl)c2CN1)c1ccc2ccccc2c1 | 202 to 204 °C
O=S(=O)(NC1=Nc2ccccc2CN1)c1cccc2cccc(Cl)c12 | 103 to 105 °C
CC1NC(NS(=O)(=O)c2ccc3ccccc3c2)=Nc2cc(Cl)ccc21 (stereo not shown) | 167 to 171 °C
O=S(=O)(Nc1nc2ccccc2[nH]1)c1cccc2ccccc12 | > 315 °C
COc1cccc2c1CNC(NS(=O)(=O)c1cccc3ccccc13)=N2 | 245 to 249 °C
CN(C)c1ccc2c(c1)CNC(NS(=O)(=O)c1cccc3ccccc13)=N2 | 216 to 222 °C
O=S(=O)(NC1=Nc2cc(F)ccc2CN1)c1cccc2ccccc12 | 222 to 226 °C
O=S(=O)(NC1=Nc2cc(Cl)ccc2CN1)c1ccc2ccccc2c1 | 220 to 222 °C

Input: Suppose we examine the molecule COc1ccc2c(c1)CNC(NS(=O)(=O)c1cccc3ccccc13)=N2 ; what melting point value has been reported?
Output: 263 to 266 °C

Input: Suppose we examine the molecule O=S(=O)(NC1=Nc2ccc(Cl)cc2CN1)c1cccc2ccccc12 ; what melting point value has been reported?
Output: 275 to 277 °C

* * *

# experiment summary: Chromatographic hydrophobicity index on C18 column (lipophilicity)
# Assay type: physicochemical
# study conditions: pH 10.5
Decision: CHI C18 pH 10.5 >= 100 yields YES, all other cases yield NO.

O=S(=O)(NC1=Nc2ccccc2CN1)c1cccc(Cl)c1 | NO

Input: For this molecule, is measured CHI C18 pH 10.5 100 or higher? O=S(=O)(NC1=Nc2ccc(Cl)c(Cl)c2CN1)c1cccc2ccccc12
Output: YES

Input: For this molecule, is measured CHI C18 pH 10.5 100 or higher? O=S(=O)(NC1=Nc2cccc(F)c2CN1)c1cccc2ccccc12
Output: NO

Input: For this molecule, is measured CHI C18 pH 10.5 100 or higher? O=S(=O)(NC1=Nc2cc(Cl)ccc2CN1)c1cccc2ccccc12
Output: NO

* * *

Target or system 5-HT1A receptor (Homo sapiens, UniProt P08908): recorded Ki listed per item.
Use µM as the unit, but write only the number.

CC1NC(NS(=O)(=O)c2cccc3ccccc23)=Nc2cccc(Cl)c21 (centres unmarked) | 35.1
CC1OC(NS(=O)(=O)c2cccc3ccccc23)=Nc2ccccc21 (centres unmarked) | 7.54
CC1NC(NS(=O)(=O)c2cccc3ccccc23)=Nc2c(Cl)cccc21 (centres unmarked) | 134
CC1NC(NS(=O)(=O)c2cccc3ccccc23)=Nc2cccc(F)c21 (centres unmarked) | 80

# next molecule below
Input: // map CC1c2ccccc2N=C(NS(=O)(=O)c2cccc3ccccc23)N1C (centres unmarked) to recorded Ki (system: 5-HT1A receptor (Homo sapiens, UniProt P08908))
Sequence (P08908 whole entry): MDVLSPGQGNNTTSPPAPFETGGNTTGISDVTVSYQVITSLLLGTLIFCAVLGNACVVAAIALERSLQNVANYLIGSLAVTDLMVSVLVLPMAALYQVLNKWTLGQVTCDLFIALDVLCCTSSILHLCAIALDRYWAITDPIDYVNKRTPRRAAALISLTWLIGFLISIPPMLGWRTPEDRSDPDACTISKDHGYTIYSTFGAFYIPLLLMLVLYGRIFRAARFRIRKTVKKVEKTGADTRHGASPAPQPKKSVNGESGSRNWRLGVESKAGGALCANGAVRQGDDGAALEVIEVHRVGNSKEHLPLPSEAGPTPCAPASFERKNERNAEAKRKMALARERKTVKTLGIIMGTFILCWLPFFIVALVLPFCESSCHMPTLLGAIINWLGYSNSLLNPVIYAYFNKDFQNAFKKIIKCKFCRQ
Output: 11

* * *

Each entry below carries its reported CHI C18 pH 2.6.
# experiment summary: Chromatographic hydrophobicity index on C18 column (lipophilicity)
# Format: physicochemical
# study conditions: pH 2.6
// return a plain number; no unit text

COc1ccc2c(c1)CNC(NS(=O)(=O)c1cccc3ccccc13)=N2 | 84.9
CN1CCN2c3ncccc3Cc3ccccc3C2C1 (centres unmarked) [Mirtazapine, reference compound] | 46.7
O=S(=O)(NC1=Nc2ccccc2CN1)c1c(Cl)ccc2ccccc12 | 95.8
O=S(=O)(NC1=Nc2ccccc2CN1)c1ccc(Cl)c2ccccc12 | 100.1
Nc1nc2ccccc2n1S(=O)(=O)c1cccc2cccnc12 | 75.1

Input: Suppose we examine the molecule O=S(=O)(NC1=Nc2c(Cl)cc(Cl)cc2CN1)c1cccc2ccccc12 ; what CHI C18 pH 2.6 value has been reported?
Output: 108.2

Input: Suppose we examine the molecule O=S(=O)(NC1=Nc2ccccc2CN1)c1ccccc1Cl ; what CHI C18 pH 2.6 value has been reported?
Output: 76.4

Input: Suppose we examine the molecule COc1cccc2c1CNC(NS(=O)(=O)c1cccc3ccccc13)=N2 ; what CHI C18 pH 2.6 value has been reported?
Output: 92.8

* * *

# experiment summary: Chromatographic hydrophobicity index on C18 column (lipophilicity)
# Type: physicochemical
# study conditions: pH 7.4
Each entry below carries its reported CHI C18 pH 7.4.

Input: Suppose we examine the compound CC1NC(NS(=O)(=O)c2cccc3ccccc23)=Nc2cccc(F)c21 (centres unmarked) ; what CHI C18 pH 7.4 value has been reported?
Output: 94.9

Input: Suppose we examine the compound O=S(=O)(NC1=Nc2ccccc2CN1)c1cccc2cc(Cl)ccc12 ; what CHI C18 pH 7.4 value has been reported?
Output: 96.5

Input: Suppose we examine the compound CC1NC(NS(=O)(=O)c2cccc3ccccc23)=Nc2ccc(Br)cc21 (centres unmarked) ; what CHI C18 pH 7.4 value has been reported?
Output: 101.2

Input: Suppose we examine the compound CC1NC(NS(=O)(=O)c2cccc3ccccc23)=Nc2c(Cl)cccc21 (centres unmarked) ; what CHI C18 pH 7.4 value has been reported?
Output: 100.7

Input: Suppose we examine the compound CC1OC(NS(=O)(=O)c2cccc3ccccc23)=Nc2ccccc21 (centres unmarked) ; what CHI C18 pH 7.4 value has been reported?
Output: 99.9

Input: Suppose we examine the compound O=S(=O)(NC1=Nc2cc(Cl)ccc2CN1)c1ccc2ccccc2c1 ; what CHI C18 pH 7.4 value has been reported?
Output: 96.4

Input: Suppose we examine the compound O=S(=O)(NC1=Nc2ccc(Cl)c(Cl)c2CN1)c1cccc2ccccc12 ; what CHI C18 pH 7.4 value has been reported?
Output: 103.9

Input: Suppose we examine the compound O=S(=O)(NC1=Nc2ccccc2CN1)c1ccc(OC(F)(F)F)cc1 ; what CHI C18 pH 7.4 value has been reported?
Output: 93.2

Input: Suppose we examine the compound O=S(=O)(NC1=Nc2cccc(Cl)c2CN1)c1ccc(Cl)c2ccccc12 ; what CHI C18 pH 7.4 value has been reported?
Output: 109.2

Input: Suppose we examine the compound Nc1nc2ccccc2n1S(=O)(=O)c1cccc2cccnc12 ; what CHI C18 pH 7.4 value has been reported?
Output: 79.2

Input: Suppose we examine the compound COc1ccc2c(c1)CNC(NS(=O)(=O)c1cccc3ccccc13)=N2 ; what CHI C18 pH 7.4 value has been reported?
Output: 85.0

* * *

# experiment summary: Chromatographic hydrophobicity index on C18 column (lipophilicity)
# Assay type: physicochemical
# study conditions: pH 2.6
quantity kind: CHI C18 pH 2.6
// return a plain number; no unit text

Known CHI C18 pH 2.6 results, listed for orientation:
O=S(=O)(NC1=Nc2ccc(Cl)cc2CN1)c1cccc2ccccc12 | 96.5
Nc1nc2ccccc2n1S(=O)(=O)c1csc2ccccc12 | 89.8
O=S(=O)(NC1=Nc2ccccc2CN1)c1cccc(Cl)c1 | 83.7
CC1NC(NS(=O)(=O)c2cccc3ccccc23)=Nc2ccc(Br)cc21 (stereo not shown) | 103.2
O=S(=O)(NC1=Nc2ccccc2CN1)c1ccc2c(Cl)cccc2c1 | 99.1

Input: Suppose we examine the compound CC1NC(NS(=O)(=O)c2cccc3ccccc23)=Nc2cccc(Cl)c21 (stereo not shown) ; what CHI C18 pH 2.6 value has been reported?
Output: 101.4

Input: Suppose we examine the compound COc1cccc(S(=O)(=O)NC2=Nc3ccccc3CN2)c1 ; what CHI C18 pH 2.6 value has been reported?
Output: 74.1

Input: Suppose we examine the compound COc1ccc(C(CN(C)C)C2(O)CCCCC2)cc1 (stereo not shown) [Venlafaxine, reference compound] ; what CHI C18 pH 2.6 value has been reported?
Output: 53.5

Input: Suppose we examine the compound CC1NC(NS(=O)(=O)c2ccc(Cl)c3ccccc23)=Nc2c(Cl)cc(Cl)cc21 (stereo not shown) ; what CHI C18 pH 2.6 value has been reported?
Output: 125.7

Input: Suppose we examine the compound CC1NC(NS(=O)(=O)c2ccc3ccccc3c2)=Nc2cc(Cl)ccc21 (stereo not shown) ; what CHI C18 pH 2.6 value has been reported?
Output: 101.0

* * *

# experiment summary: Chromatographic hydrophobicity index on C18 column (lipophilicity)
# Type: physicochemical
# study conditions: pH 10.5
quantity kind: CHI C18 pH 10.5
// return a plain number; no unit text

Known CHI C18 pH 10.5 results, listed for orientation:
COc1cccc2c1CNC(NS(=O)(=O)c1cccc3ccccc13)=N2 | 96.6
CN1CCN2c3ncccc3Cc3ccccc3C2C1 (centres unmarked) [Mirtazapine, reference compound] | 79.0
O=S(=O)(NC1=Nc2ccccc2CN1)c1ccc(F)cc1 | 75.7
COc1ccc(Cl)cc1S(=O)(=O)NC1=Nc2ccccc2CN1 | 83.0
COc1ccc2c(c1)N=C(NS(=O)(=O)c1cccc3ccccc13)NC2 | 90.3

Input: Suppose we examine the compound O=S(=O)(NC1=Nc2ccccc2CN1)c1ccccc1Cl ; what CHI C18 pH 10.5 value has been reported?
Output: 86.6

Input: Suppose we examine the compound Cc1cccc2c1CNC(NS(=O)(=O)c1cccc3ccccc13)=N2 ; what CHI C18 pH 10.5 value has been reported?
Output: 94.2

Input: Suppose we examine the compound O=S(=O)(NC1=Nc2ccccc2CN1)c1ccc(Cl)c2ccccc12 ; what CHI C18 pH 10.5 value has been reported?
Output: 101.6

Input: Suppose we examine the compound O=S(=O)(NC1=Nc2ccccc2CN1)c1cccc2cc(Cl)ccc12 ; what CHI C18 pH 10.5 value has been reported?
Output: 99.5

Input: Suppose we examine the compound CN(C)CCC=C1c2ccccc2CCc2ccccc21 [Amitriptyline, reference compound] ; what CHI C18 pH 10.5 value has been reported?
Output: 116.3

Input: Suppose we examine the compound O=S(=O)(Nc1nc2ccccc2[nH]1)c1cccc2ccccc12 ; what CHI C18 pH 10.5 value has been reported?
Output: 58.4

Input: Suppose we examine the compound COc1ccc(C(CN(C)C)C2(O)CCCCC2)cc1 (centres unmarked) [Venlafaxine, reference compound] ; what CHI C18 pH 10.5 value has been reported?
Output: 92.9

Input: Suppose we examine the compound O=S(=O)(NC1=Nc2cccc(Cl)c2CN1)c1ccc(Cl)c2ccccc12 ; what CHI C18 pH 10.5 value has been reported?
Output: 112.5

Input: Suppose we examine the compound O=S(=O)(NC1=Nc2ccccc2CN1)c1ccc(Cl)c(Cl)c1 ; what CHI C18 pH 10.5 value has been reported?
Output: 95.2

Input: Suppose we examine the compound O=S(=O)(NC1=Nc2cc(Cl)ccc2CN1)c1ccc2ccccc2c1 ; what CHI C18 pH 10.5 value has been reported?
Output: 99.9

Input: Suppose we examine the compound CC1NC(NS(=O)(=O)c2cccc3ccccc23)=Nc2c(Cl)cccc21 (centres unmarked) ; what CHI C18 pH 10.5 value has been reported?
Output: 103.8

Input: Suppose we examine the compound CC1NC(NS(=O)(=O)c2cccc3ccccc23)=Nc2cccc(F)c21 (centres unmarked) ; what CHI C18 pH 10.5 value has been reported?
Output: 96.5

Input: Suppose we examine the compound Nc1nc2ccccc2n1S(=O)(=O)c1cccc2cccnc12 ; what CHI C18 pH 10.5 value has been reported?
Output: 79.6

Input: Suppose we examine the compound COc1cccc(S(=O)(=O)NC2=Nc3ccccc3CN2)c1 ; what CHI C18 pH 10.5 value has been reported?
Output: 75.5

Input: Suppose we examine the compound O=S(=O)(NC1=Nc2cc(F)ccc2CN1)c1cccc2ccccc12 ; what CHI C18 pH 10.5 value has been reported?
Output: 95.4

# credit: paper PMC11477289
